molecular target: Sclerostin (Homo sapiens, UniProt Q9BQB4); test: Luciferase Wnt pathway activity assay: inhibition of sclerostin by restoration of Wnt signaling in human cells
Sequence (Q9BQB4 24-213, species assumed): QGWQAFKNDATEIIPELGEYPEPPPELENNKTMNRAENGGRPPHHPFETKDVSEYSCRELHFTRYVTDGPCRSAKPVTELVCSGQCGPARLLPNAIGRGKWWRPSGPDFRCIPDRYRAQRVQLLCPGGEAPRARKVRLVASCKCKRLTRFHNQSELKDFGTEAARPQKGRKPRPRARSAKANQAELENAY
measured-property: IC50 (µM)

                                test_smiles                           measured_target  numeric_value
0  COc1cc2c(cc1O)C[C@H]1c3c(cc(O)c(OC)c3-2)CCN1C  Sclerostin (Homo sapiens, UniProt Q9BQB4)              5
